Attribution: paper PMC10397247

Molecular target: T1, P2-AA-1HAA-V
T1 chain: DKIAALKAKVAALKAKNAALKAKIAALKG
Assay: two-hybrid library CCmax;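 further: natural log of median RNA to DNA barcode read ratio; higher means stronger binding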
Conditions: mean of both orientations
measured.metric: interaction score
Give only the figure.

DEIAALEAEIAALEAENAALEAEIAALEG [P1-AA-1HAA-I]: 1.69

**Q:** Fill in: interaction score of DEIAALEAESAALEAENAALEAEIAALEG [P1-AA-1HAA-S] is ___
**A:** 2

**Q:** Fill in: interaction score of DEIAALEAETAALEAENAALEAEIAALEG [P1-AA-1HAA-T] is ___
**A:** 2.02

**Q:** Fill in: interaction score of DEIAALEAERAALEAENAALEAEIAALEG [P1-AA-1HAA-R] is ___
**A:** 2.29

**Q:** Fill in: interaction score of DEIAALEAELAALEAENAALEAEIAALEG [P1-AA-1HAA-L] is ___
**A:** 1.87

**Q:** Fill in: interaction score of DEIAALEAEAAALEAENAALEAEIAALEG [P1-AA-1HAA-A] is ___
**A:** 2.11

**Q:** Fill in: interaction score of DEIAALEAEVAALEAENAALEAEIAALEG [P1-AA-1HAA-V] is ___
**A:** 2.01

**Q:** Fill in: interaction score of DEIAALEAEKAALEAENAALEAEIAALEG [P1-AA-1HAA-K] is ___
**A:** 2.1

**Q:** Fill in: interaction score of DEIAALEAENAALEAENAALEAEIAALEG [P1-AA] is ___
**A:** 1.86

**Q:** Fill in: interaction score of DEIAALEAEYAALEAENAALEAEIAALEG [P1-AA-1HAA-Y] is ___
**A:** 1.99

**Q:** Fill in: interaction score of DEIAALEAEHAALEAENAALEAEIAALEG [P1-AA-1HAA-H] is ___
**A:** 1.33
